Assign growth to each entry below.
tested on: RPMI-8226 leukemia; test: NCI-60 one-dose screen, 48 h (100 = growth as untreated, 0 = no growth, -100 = all killed); conditions: 10 µM unless noted
About 83,000 compounds went through this panel and 20% of them were active in at least one assay; those are over-represented in the sample as a whole.
Give bare numbers, in %.

| molecule | growth (%) |
| --- | --- |
| NCCCOc1cc2ccccc2cc1C(=O)NCCCOc1cc2ccccc2cc1C(=O)Nc1ccc(Cl)cc1O | -18.3 |
| CN1CCN(Cc2ccc(NC(=O)c3cccc(C#Cc4cnc(N)c5ncccc45)c3F)cc2C(F)(F)F)CC1 | -9.88 |
| O=c1c2sc3ccccc3c2nnn1-c1ccc(F)c(Cl)c1 | 57.3 |
| CCCC(CCC)NCC(O)c1cc(-c2ccc(C(F)(F)F)cc2)nc(C(F)(F)F)c1 (stereo not given) | -37.7 |

Here is the next item to consider.
Fill in: growth of CCCCN(CCCC)CCC(O)c1cc2ccc(C(F)(F)F)cc2c2cc(C(F)(F)F)ccc12 (stereo not given) is ___
-9.02

----------
Tested on: MDA-MB-231 breast
Assay: NCI-60 one-dose screen, 48 h (100 = growth as untreated, 0 = no growth, -100 = all killed)
Details: 10 µM unless noted
Method: Cells are grown in 96 well plates and exposed to the test compound for 48 hours. Compounds are tested at a single concentration, which is 10^-5 M for most compounds. The reported endpoint is percent growth (GI% or GIPRCNT), where numbers from 0 - 100% represent growth inhibition, and numbers from -100% - 0 represent cell death. For example, a value of 40 represents 60% growth inhibition. A value of 0 means no net growth occurred over the course of the experiment. […]
About 83,000 compounds went through this panel and 20% of them were active in at least one assay; those are over-represented in the sample as a whole.
Consider the cut-off 40%. If the recorded growth is strictly smaller, the label is fulfilled; if not, the label is not fulfilled.

| molecule | targetEntity | label |
| --- | --- | --- |
| CCOC(=O)c1c(NC(=O)c2ccccc2)sc2c(O)c(CN(CC)CC)ccc12 | MDA-MB-231 breast | fulfilled |
| COc1ccc(C2C3=C(COC3=O)N(CCO)c3cc(OC)c(OC)cc32)cc1 (stereo unspecified) | MDA-MB-231 breast | not fulfilled |
| Cc1ccc(-c2cnc3sc4ccc(Cl)cc4n23)cc1 | MDA-MB-231 breast | not fulfilled |
| O=C(Nc1ccc2ncnc(Nc3ccc(F)c(Cl)c3)c2c1)c1cccs1 | MDA-MB-231 breast | not fulfilled |
| COc1cc2c(cc1I)-c1c(cc(OC)c(OC)c1OC)CC[C@@H]2NC(C)=O | MDA-MB-231 breast | fulfilled |

Consider CN(C)c1ccc(N2Cc3ccccc3OC3=C2C(=O)c2c(O)ccc(O)c2C3=O)cn1 . Does its growth lie strictly below 40%?
fulfilled

Determine if CCCc1n(Cc2ccc3ccccc3n2)cc[n+]1Cc1ccc2ccccc2c1 shows growth strictly lower than 40%.
fulfilled

Given the entry Cc1ccc(Nc2nc(NCCO)c3ccccc3n2)cc1C , would its reported growth be below 40%?
fulfilled

Determine whether this molecule shows growth lower than 40% (ties excluded): COc1ccc(/C(=C\c2ccc3c(c2)OCO3)C(=O)Nc2nc3ccccc3s2)cc1
not fulfilled

Lab log: compare recorded growth with 40%; is it strictly lower for CC(C)N1CCN(c2ccncc2S(=O)(=O)N2CCN(C)CC2)CC1 ?
not fulfilled

Determine whether this molecule shows growth lower than 40% (ties excluded): COc1ccc(Sc2[nH]c(C=O)c3ccccc23)cc1
not fulfilled

Strictly below 40% in growth? CO[C@@]12[C@@H]3NC3CN1C1=C(C(=O)C(N)=C(C)C1=O)[C@@H]2COC(N)=O (stereo partly specified)
not fulfilled

Please determine if COC(=O)c1ccc(NC(N)=NCCC(C)(C)c2ccc(C(F)(F)F)cc2)nc1 is below 40% in terms of growth.
not fulfilled

Decide: growth of COc1cc(C2CC(c3ccc(Nc4ccnc5cc(Cl)ccc45)cc3)=NN2c2ccccc2)cc(OC)c1OC (stereo unspecified) strictly below 40%?
not fulfilled

Is growth of COc1cc(/C=C/c2ccc3c(Br)cc(Br)c(O)c3n2)ccc1O strictly below 40%?
not fulfilled

Please determine if COc1ccc(/C=C2\Cc3c(Br)cccc3C2=O)c(OC)c1 is below 40% in terms of growth.
not fulfilled

Here's an entry: COc1cccc(OCC(O)CN2CCN(c3ccccc3)CC2)c1 (stereo unspecified) . Is its growth below 40%?
not fulfilled

Is growth of COc1ccc2[nH]c(O)c(/C=c3/ccc4c(c3)N=C(c3ccc(F)cc3)N=4)c2c1 strictly below 40%?
not fulfilled

Criterion: growth strictly below 40%. Is it met by CC1=C(C(=O)Nc2ccc(F)cc2)C(c2ccccc2)C2=C(CC(C)(C)CC2=O)N1 (stereo unspecified) ?
not fulfilled

I wonder whether O=c1c2sc3ccccc3c2nnn1-c1ccc(F)c(Cl)c1 has growth below 40%. Can you tell?
fulfilled

Dear reviewer, please state whether CC[C@H](Nc1nc(N)nc(N)c1Cl)c1nc2cccc(NCc3ccc(C(=O)NO)cc3)c2c(=O)n1-c1ccccc1 has growth strictly beneath 40%.
fulfilled

Find out if reported growth for Fc1ccc2c(CN3CCO[C@H](COc4cccc(Cl)c4)C3)c[nH]c2c1 is less than 40%
not fulfilled

Is the reported growth for COc1ccc2c(c1)N(CCO)C1=C(C(=O)OC1)C2c1cccc(Br)c1 (stereo unspecified) strictly below 40%?
fulfilled

Hello, is growth of the following molecule strictly smaller than 40%? Clc1ncnc2scc(C3COc4ccccc4O3)c12 (stereo unspecified)
not fulfilled

Quick check: does Cc1cc(N=Nc2ccc(-c3ccc(N=Nc4ccc(O)c(C(=O)O)c4)cc3)cc2)c(N)c(N=Nc2ccc(C(=O)O)cc2)c1N have growth under 40%?
not fulfilled

Is growth of CCCCn1c(C)nc2cc(Nc3nc(Cl)nc4nc[nH]c34)ccc21 strictly below 40%?
not fulfilled

----------
tested on: SNB-19 CNS; assay: NCI-60 one-dose screen, 48 h (100 = growth as untreated, 0 = no growth, -100 = all killed); conditions: 10 µM unless noted
About 83,000 compounds went through this panel and 20% of them were active in at least one assay; those are over-represented in the sample as a whole. Active and inactive are the calls of the source. Rule for the calls: active = growth percent below 10; inactive = the rest.
measurementLabel: growth

Take a look at these entries with their results.
| molecule | growth |
| --- | --- |
| COc1ccc(/C=c2\c(=O)n(-c3ccccc3)c3nn4c(n23)=NNC42CCCCC2)cc1 | 93.9% (inactive) |
| COc1cc2nccc(Oc3ccc(NC(=O)C4(C(=O)Nc5ccc(F)cc5)CC4)cc3)c2cc1OC(=O)c1ccc(N)cc1 | 37.6% (inactive) |
| Oc1[nH]c2ccc(Cl)cc2c1/C=c1/ccc2c(c1)N=C(c1ccc(F)cc1)N=2 | 69% (inactive) |

Record growth for all entries; do not skip any.
1. COc1ccc(Sc2[nH]c(C=O)c3ccccc23)cc1
2. CCCCC(CCc1ccccn1)C(=O)c1ccccc1 (stereo unspecified)

["77.6% (inactive)", "110% (inactive)"]

Could you report growth for every entry in the following list?
1. O=C(Nc1ccc2ncnc(Nc3ccc(F)c(Cl)c3)c2c1)c1cccs1
2. Nc1ncnc2c1N=C(c1ccc(F)cc1)CC(c1sc(Cl)nc1Cl)N2 (stereo unspecified)
3. CCn1c(CN2CCN(Cc3ccccc3)CC2)nc2cc(NC(=O)c3cccs3)ccc21
4. CC1(C)C(N(O)C(=O)Nc2ccc(Cl)cc2)N(c2ccc(Cl)cc2)C(=O)N1CC(=O)N/N=C/C=C/c1ccc([N+](=O)[O-])o1 (stereo unspecified)
5. C/C(=N\NC(=S)Nc1ccccc1)c1ccccn1
6. COc1ccc(/C=C/C(=O)c2ccc(NC(=O)CSc3nnc(-c4ccc(Cl)cc4)n3-c3ccccc3)cc2)cc1

68.9% (inactive)
92.9% (inactive)
-41.7% (active)
48.5% (inactive)
43.5% (inactive)
96.2% (inactive)

----------
system: U251 CNS; experiment: NCI-60 one-dose screen, 48 h (100 = growth as untreated, 0 = no growth, -100 = all killed); conditions: 10 µM unless noted
This is part of a sample that, as a whole, favours compounds with a hit. Of some 83,000 tested, about 20% had one in any assay.
measurementLabel: growth (%)
Give bare numbers, in %.

| molecule | targetEntity | growth / % |
| --- | --- | --- |
| COc1ccc(-c2nsc3c2NC(=O)CC3c2cccc(F)c2)cc1 (stereo not given) | U251 CNS | 45.6 |
| O=C(CCCCCCc1nc2ccc(Br)cc2[nH]1)NO | U251 CNS | -15.4 |
| CNC(=O)c1cc(Oc2ccc(NC(=O)c3nc(S(C)(=O)=O)n(C)c3-c3ccc(F)cc3)cc2)ccn1 | U251 CNS | 76.1 |

Give growth for each of the items listed below.
1. CCOC(=O)NNc1cccc(Cl)c1
2. COc1cc(C2CC(c3cccc(Nc4ccnc5cc(Cl)ccc45)c3)=NN2c2ccccc2)cc(OC)c1OC (stereo not given)

100
78.8
